test system: BDF1 mice, B16 melanoma ip, median survival T/C; test: NCI In Vivo Anticancer Drug Screen. Data for tumor model B16 Melanoma (intraperitoneal) in B6D2F1 (BDF1) mice; conditions: endpoint: median survival time; dose: 1.0 mg/kg/injection; schedule: Q01DX009 (ip); vehicle: Klucel (hydroxypropylcellulose) (HPC); higher = longer survival
Inconclusive results and toxic doses are left out.
recorded metric: T/C

What value of T/C has been reported for the following compound? CCC(C)C(N)C(=O)NC(CC(N)=O)C(=O)NC(CC(C)C)C(=O)NC(CCCCN)C(=O)NC(C)C(=O)NC(CC(C)C)C(=O)NC(C)C(=O)NC(C)C(=O)NC(CC(C)C)C(=O)NC(C)C(=O)NC(CCCCN)C(=O)NC(CCCCN)C(=O)NC(C(=O)NC(CC(C)C)C(N)=O)C(C)CC (centres undefined)
97 % of control

Could you tell me which T/C is on file for CC(=O)Oc1ccc(OC(C)=O)c2c1C(=O)C=CC2=O ?
88 % of control

Query: T/C; subject: Cc1c2cc3c(c1O)C(=O)CC(O3)c1ccc(O)c(c1)-c1ccc(O)c(c1)C(=O)OCC1OC(O2)C(O)C(O)C1O (centres undefined)
94 % of control

Reported T/C, compound O=C1CC(c2ccc(OCN(CCCl)CCCl)cc2)CC(=O)C1CN(CCCl)CCCl (centres undefined) : ____
100 % of control

---

tested on: BDF1 mice, B16 melanoma ip, median survival T/C; assay: NCI In Vivo Anticancer Drug Screen. Data for tumor model B16 Melanoma (intraperitoneal) in B6D2F1 (BDF1) mice; settings: endpoint: median survival time; dose: 1.0 mg/kg/injection; schedule: Q01DX009 (ip); vehicle: saline; higher = longer survival
Inconclusive results and toxic doses are left out.
recorded metric: T/C

Given the entry NC(=O)CNC1=C(N2CC2)C(=O)C(NCC(N)=O)=C(N2CC2)C1=O , what T/C was observed with BDF1 mice, B16 melanoma ip, median survival T/C?
115 % of control

Write down the reported T/C of Nc1ncnc2c(C3OC(CO)C(O)C3O)[nH]nc12 (centres undefined) , test system: BDF1 mice, B16 melanoma ip, median survival T/C.
113 % of control

Hello, I am looking for reported T/C with BDF1 mice, B16 melanoma ip, median survival T/C for O=C1C(NCC(O)CO)=C(N2CC2)C(=O)C(NCC(O)CO)=C1N1CC1 (centres undefined) . Could you help?
95 % of control

Record CC[n+]1c(-c2ccccc2)c2cc(N)ccc2c2ccc(N)cc21 : what is its T/C with BDF1 mice, B16 melanoma ip, median survival T/C?
95 % of control

---

system: BDF1 mice, B16 melanoma ip, median survival T/C; experiment: NCI In Vivo Anticancer Drug Screen. Data for tumor model B16 Melanoma (intraperitoneal) in B6D2F1 (BDF1) mice; conditions: endpoint: median survival time; dose: 6.25 mg/kg/injection; schedule: Q01DX009 (ip); vehicle: saline with Tween-80; higher = longer survival
Inconclusive results and toxic doses are left out.
recorded metric: T/C

Param readout = T/C; param system = BDF1 mice, B16 melanoma ip, median survival T/C; param query = COC(=O)Nc1ccc(Cc2ccc(NC(=O)OC)cc2)cc1 ; response: value
107 % of control

Please tell me: T/C of C=C1C(=O)C23[C@H](O)C1CC[C@H]2[C@]12COC3(O)[C@@H](O)[C@@H]1C(C)(C)CC[C@@H]2O , system BDF1 mice, B16 melanoma ip, median survival T/C?
96 % of control

Give BDF1 mice, B16 melanoma ip, median survival T/C T/C for S=C([S][Sn]([c]1ccccc1)([c]1ccccc1)[c]1ccccc1)N1CCOCC1
110 % of control

So what T/C did Cc1c2cc(Cl)c3ccccc3c2c[n+]2ccccc12 get with BDF1 mice, B16 melanoma ip, median survival T/C?
113 % of control

Hello, I am looking for reported T/C with BDF1 mice, B16 melanoma ip, median survival T/C for COC(=Nc1ccccc1)SSC(C)C . Could you help?
113 % of control

What measured T/C is associated with CCc1ncnc2cc(OCC3CO3)c(OC)cc12 (configuration not stated) on BDF1 mice, B16 melanoma ip, median survival T/C?
109 % of control

I'm curious: which T/C was measured for CC(C)CN(CC(C)C)c1ccc([N+](=O)[O-])cc1[N+](=O)[O-] tested on BDF1 mice, B16 melanoma ip, median survival T/C?
105 % of control

Fill in the recorded T/C for this compound, with BDF1 mice, B16 melanoma ip, median survival T/C as test system: CC(C)(C)c1cc([N+](=O)[O-])cc([N+](=O)[O-])c1O
93 % of control

Lab note: need T/C with BDF1 mice, B16 melanoma ip, median survival T/C for entry Cc1cc(Cl)ccc1NC(=O)COc1ccc(Cl)cc1 , please look it up.
98 % of control

Given the entry CC1(C)N=C(N)N=C(N)N1c1cccc(CCCCc2cccc(S(=O)(=O)F)c2)c1 , what T/C was observed with BDF1 mice, B16 melanoma ip, median survival T/C?
115 % of control

Please provide the recorded T/C for CC(=O)N(C)c1ccc(/C=C2\C=Cc3ccccc32)cc1 , tested on BDF1 mice, B16 melanoma ip, median survival T/C.
96 % of control

Request - read-out T/C | tested on BDF1 mice, B16 melanoma ip, median survival T/C | compound CC1(C)CC1(Br)Br
112 % of control

For BDF1 mice, B16 melanoma ip, median survival T/C, provide T/C of COc1cc(/C=C/c2nc3ccccc3nc2/C=C/c2cc(OC)c(OC)c(OC)c2)cc(OC)c1OC please.
106 % of control

Look up T/C with BDF1 mice, B16 melanoma ip, median survival T/C for this compound: O=[N+]([O-])/C(=C/c1ccccc1)c1ccccc1
104 % of control

Please state recorded T/C (tested on BDF1 mice, B16 melanoma ip, median survival T/C) of CCOC(=O)C(N)C[S][Sn]([CH3])([CH3])[Cl] (configuration not stated)
105 % of control

Which T/C is reported with BDF1 mice, B16 melanoma ip, median survival T/C for this entry: CCOC(=O)c1cnc(NN)nc1Nc1cc(Cl)cc(Cl)c1 ?
97 % of control

So what T/C did O=C(O[Si](Cc1ccccc1)(Cc1ccccc1)Cc1ccccc1)N(CCCl)CCCl get with BDF1 mice, B16 melanoma ip, median survival T/C?
100 % of control

Which T/C is reported with BDF1 mice, B16 melanoma ip, median survival T/C for this entry: CNC(=S)C(=S)NC ?
102 % of control

Lab note: need T/C for OC(COC(c1ccccc1)(c1ccccc1)c1ccccc1)C(O)CC1SCCS1 (configuration not stated) on BDF1 mice, B16 melanoma ip, median survival T/C, anyone have it?
100 % of control

Provide value of T/C for this record tested with BDF1 mice, B16 melanoma ip, median survival T/C: ClC(Cl)(Cl)c1nc2nccnc2[nH]1
94 % of control

Param readout= T/C; system= BDF1 mice, B16 melanoma ip, median survival T/C; entry= O=Cc1ccc([N+](=O)[O-])s1 ; returns value.
96 % of control

Notebook entry, BDF1 mice, B16 melanoma ip, median survival T/C assay: T/C of CO[C@@H]1[C@H](O)CC[C@]2(CO2)[C@H]1[C@@]1(C)O[C@@H]1CC=C(C)C = ?
102 % of control
